Tested on: 5-HT uptake
Assay overview: Test 173: potentiation of 5-HTP (5-hydroxytryptophane) induced hypermotility in mice (inhibition of 5HT uptake, or 5HT potentiation, test)
Assay type: in vivo, mice (female, NMRI strain)
Test context: Mus musculus, sc, read-out: Test 173 (dose increasing the activity to double the activity found with controls receiving 5-HTP alone; ED50); mice, s.c., 5-HTP 150 mg/kg i.p., motility 45-75 min after 5-HTP; water-soluble salt
Measured attribute: ED50 (mg/kg)

molecule="COc1ccc(OC[C@@H]2CNCC[C@H]2c2ccccc2)cc1 (single isomer, unassigned) [FG 7006, reference compound]" measured_attribute=ED50 unit=mg/kg assay_value=20
molecule="COc1ccc(OC[C@H]2CN(C)CC[C@@H]2c2ccccc2)cc1 (single isomer, unassigned) [FG 4963, reference compound]" measured_attribute=ED50 unit=mg/kg assay_value=2.8
molecule="COc1ccc(OC[C@@H]2CN(C)CC[C@H]2c2ccc(F)cc2)cc1 (single isomer, unassigned) [FG 8033]" measured_attribute=ED50 unit=mg/kg assay_value=0.5
molecule="COc1ccc(OC[C@@H]2CN(C)CC[C@H]2c2ccc(F)cc2)cc1 (relative stereo) [FG 98-I]" measured_attribute=ED50 unit=mg/kg assay_value=1.3
molecule="COc1ccc(OC[C@@H]2CN(C)CC[C@H]2c2ccc(F)cc2)cc1.Cl (single isomer, unassigned)" measured_attribute=ED50 unit=mg/kg assay_value=23
molecule="COc1ccc(OC[C@@H]2CNCC[C@H]2c2ccc(F)cc2)cc1 (single isomer, unassigned)" measured_attribute=ED50 unit=mg/kg assay_value=1
molecule="COc1ccc(OC[C@@H]2CN(C)CC[C@H]2c2ccccc2)cc1 (relative stereo) [FG 4932, reference compound]" measured_attribute=ED50 unit=mg/kg assay_value=7.7
molecule="CC(=O)O.COc1ccc(OC[C@@H]2CNCC[C@H]2c2ccc(F)cc2)cc1 (single isomer, unassigned)" measured_attribute=ED50 unit=mg/kg assay_value=22

Where these numbers come from: patent US4593036A
